Assay Name: Inhibition of c-src T338G/S345C double mutant by radioactive phosphotransfer assay
pIC50 values by entry
Keep in mind that pIC50 stands for -log10 of concentration in molar terms.

// solved cases for pIC50 follow
1. C=CC(=O)Nc1ccc2ncnc(Nc3ccc4ccccc4c3)c2c1 | 7.89
2. C=CC(=O)Nc1ccc2ncnc(Nc3ccc(C(C)C)cc3)c2c1 | 7.80

Now for the molecule whose pIC50 we want.
Tell me pIC50 reported for C=CC(=O)Nc1ccc2ncnc(Nc3ccc(-c4ccccc4)cc3)c2c1 7.89
